// data source = paper PMC8552233

Molecular target: P. falciparum IspC (Plasmodium falciparum)
pKi: −log10 of the molar value.

| entry smiles | measurement target | pKi |
| --- | --- | --- |
| CC(=O)N(O)CCCP(=O)(O)O | P. falciparum IspC (Plasmodium falciparum) | 8.05 |

----------
Overview of reported pIC50 across a group of molecules:
Target protein (sequence): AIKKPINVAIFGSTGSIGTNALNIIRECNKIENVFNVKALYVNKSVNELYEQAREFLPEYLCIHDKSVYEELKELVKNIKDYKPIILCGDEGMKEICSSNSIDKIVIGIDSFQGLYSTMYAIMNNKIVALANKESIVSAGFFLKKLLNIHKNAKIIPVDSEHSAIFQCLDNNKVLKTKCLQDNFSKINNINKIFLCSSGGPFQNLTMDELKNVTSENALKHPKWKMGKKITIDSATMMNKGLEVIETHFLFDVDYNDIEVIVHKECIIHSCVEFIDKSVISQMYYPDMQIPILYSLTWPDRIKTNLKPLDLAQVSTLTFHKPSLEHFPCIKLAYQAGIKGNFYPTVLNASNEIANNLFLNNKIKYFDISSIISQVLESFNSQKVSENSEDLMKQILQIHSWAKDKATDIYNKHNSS
pIC50: −log10 of the molar value.
readout label: pIC50

| molecule | readout label | quantitative readout |
| --- | --- | --- |
| CC(=O)N(C/C=C/P(=O)([O-])O)OCc1ccc(-c2ccccc2)cc1.[Na+] [1d] | pIC50 | 5.25 |
| O=C(CCc1ccccc1)N(O)C/C=C/P(=O)([O-])O.[Na+] [1b] | pIC50 | 5.88 |
| O=C(CCCc1ccccc1)N(O)C/C=C/P(=O)([O-])O.[Na+] [2b] | pIC50 | 6.05 |
| CC(=O)N(CCCP(=O)([O-])O)OCc1ccc(-c2ccccc2)cc1.[Na+] [3c] | pIC50 | 6.09 |
| O=C(CCCc1ccccc1)N(O)CCCP(=O)([O-])O.[Na+] [4a] | pIC50 | 5.87 |
| CCCCC(=O)N(O)CCCP(=O)([O-])O.[Na+] [3a] | pIC50 | 5.61 |

----------
Molecular target: P. falciparum IspC (Plasmodium falciparum, UniProt O96693)
Assay: Mechanism of inhibition
Assay type: biochemical
Conditions: Lineweaver-Burk plots; NADPH varied 6-30 μM, DXP 144 μM

| entry smiles | measurement target | mode of inhibition with respect to NADPH |
| --- | --- | --- |
| CCCCC(=O)N(O)CCCP(=O)([O-])O.[Na+] | P. falciparum IspC (Plasmodium falciparum, UniProt O96693) | uncompetitive |
| O=C(CCCc1ccccc1)N(O)C/C=C/P(=O)([O-])O.[Na+] | P. falciparum IspC (Plasmodium falciparum, UniProt O96693) | uncompetitive |
| CC(=O)N(CCCP(=O)([O-])O)OCc1ccc(-c2ccccc2)cc1.[Na+] | P. falciparum IspC (Plasmodium falciparum, UniProt O96693) | competitive |
| O=C(CCCc1ccccc1)N(O)CCCP(=O)([O-])O.[Na+] | P. falciparum IspC (Plasmodium falciparum, UniProt O96693) | uncompetitive |
| CC(=O)N(C/C=C/P(=O)([O-])O)OCc1ccc(-c2ccccc2)cc1.[Na+] | P. falciparum IspC (Plasmodium falciparum, UniProt O96693) | competitive |
| O=C(CCc1ccccc1)N(O)C/C=C/P(=O)([O-])O.[Na+] | P. falciparum IspC (Plasmodium falciparum, UniProt O96693) | uncompetitive |
| CC(=O)N(O)CCCP(=O)(O)O | P. falciparum IspC (Plasmodium falciparum, UniProt O96693) | uncompetitive |
